Target: CD38 (human, UniProt P28907 1-300)
Assay: cell-based or functional assay
*1 amine or outer side, *2 acyl side, *3 side chain or, on linkers, in order; H or OH if unused. Bridges are numbered along the chain shown (N, C = ends). Roman numbers before positions name the chains, in order. Where no end group is shown, it is not given here. [ ]: non-standard residue; d: D form. d(γGlu) = O=C(O)[C@@H](CCC(=O)[*:2])N[*:1]; Bip = N[C@@H](Cc1ccc(-c2ccccc2)cc1)C(=O)O; PEG8 = NCCOCCOCCOCCOCCOCCOCCOCCOCCC(=O)O; Ahp(2) = CCCCC[C@H](N)C(=O)O
value_type: EC50 (nM), ADCC reporter cells

binder: I-39 (Cys2-Cys12 disulfide; N-terminus extended by hydrazinecarbonyl (urea from Boc-NH-NH2 and CDI)-PEG6-; X3 and X11 = Ahp ((S)-2-aminoheptanoic acid), X10 = Bph (4-biphenylylalanine); N-terminal -C(O)CH2- (from 2-bromoacetic acid) thioether-linked to S of Cys13; C-terminus carries PEG10 linker) peptide 1: ARXYHDGVLXXDC peptide 2: DCAWHLGELVWCT
scale_unit: nM
number: 0.61

binder: I-40 (disulfide II:3-II:13; also: C-terminal Gly of chain 1 amide-bonded to N-terminal Gly of chain 2 (one chain), thioether at chain A 13 to a chain's N-terminus, The section is headed I-40, its product is called compound 523; also called compound 523) peptide 1: Ac-AR[Ahp(2)]YHDGVL[Bip][Ahp(2)]DCG peptide 2: GDCAWHLGELVWCT-NH2
scale_unit: nM
number: 50

binder: I-28 (disulfide II:2-II:12; also: chain 2 joined to the end of the chain 1 linker, thioether at chain A 13 to a chain's N-terminus) peptide 1: {‑C(O)CH2‑}-AR[Ahp(2)]YHDGVL[Bip][Ahp(2)]DC-{PEG8-d(γGlu)-d(γGlu)-D‑Glu(side chain amide of 12-aminododecanoic acid)-d(γGlu)-d(γGlu)-Gly-Gly} peptide 2: DCAWHLGELVWCT
scale_unit: nM
number: 14

binder: I-33 (Cys2-Cys12 disulfide; N-terminus extended by PEG8-; X3 and X11 = Ahp ((S)-2-aminoheptanoic acid), X10 = Bph (4-biphenylylalanine); N-terminal -C(O)CH2- (from 2-bromoacetic acid) thioether-linked to S of Cys13; C-terminus carries PEG8 linker) peptide 1: ARXYHDGVLXXDC peptide 2: DCAWHLGELVWCT
scale_unit: nM
number: 4.3
